# Tested on: pituitaries
# TEST NAME: In vitro growth hormone release study (incubated rat pituitaries, GH by RIA)
# Format: cell-based
# STATED CONDITIONS: dosage 10 ng/ml incubation medium, mean of 9 assays (I3, I4, I5 minus P2) ± SEM
Non-standard residues stand in square brackets, D forms with d. Residues, ends and D or L forms follow the SMILES beside them.
PROPERTY MEASURED: ΔGH (ng/mL)
Report as a plain number; the unit ng/mL is understood.

Here are 3 compounds together with their reported answers.
Find the recorded ΔGH belonging to CC(=O)N[C@@H](Cc1ccc(O)cc1)C(=O)N[C@H](Cc1c[nH]c2ccccc12)C(=O)N[C@@H](C)C(=O)N[C@@H](Cc1c[nH]c2ccccc12)C(=O)N[C@H](Cc1ccccc1)C(N)=O [Example 9, CH3 CO-Tyr-D-Trp-Ala-Trp-D-Phe-NH2] (Ac-Y[dW]AW[dF]-NH2) and report it.
-297

Also need C[C@H](NC(=O)[C@@H](Cc1c[nH]c2ccccc12)NC(=O)[C@@H](N)Cc1ccc(O)cc1)C(=O)N[C@@H](Cc1c[nH]c2ccccc12)C(=O)N[C@H](Cc1c[nH]cn1)C(N)=O [Example 2, H2 -Tyr-D-Trp-Ala-Trp-D-His-NH2] (H-Y[dW]AW[dH]-NH2) , thanks.
-802

Lookup C[C@H](NC(=O)[C@@H](Cc1c[nH]c2ccccc12)NC(=O)[C@@H](N)Cc1c[nH]cn1)C(=O)N[C@@H](Cc1c[nH]c2ccccc12)C(=O)N[C@H](Cc1ccc(O)cc1)C(N)=O [Example 3, H2 -His-D-Trp-Ala-Trp-D-Tyr-NH2] (H-H[dW]AW[dY]-NH2)
-99

Next:
Any idea what ΔGH was measured for C[C@H](NC(=O)[C@@H](Cc1c[nH]c2ccccc12)NC(=O)[C@@H](N)Cc1c[nH]cn1)C(=O)N[C@@H](Cc1c[nH]c2ccccc12)C(=O)N[C@H](Cc1c[nH]cn1)C(N)=O [Example 4, H2 -His-D-Trp-Ala-Trp-D-His-NH2] (H-H[dW]AW[dH]-NH2) ?
-369

* * *

# Tested on: pituitaries
# TEST NAME: In vitro growth hormone release study (incubated rat pituitaries, GH by RIA)
# Format: cell-based
# STATED CONDITIONS: dosage 1 ng/ml incubation medium, mean of 9 assays (I3, I4, I5 minus P2) ± SEM
Non-standard residues stand in square brackets, D forms with d. Residues, ends and D or L forms follow the SMILES beside them.
Below is a list of entries, each paired with its recorded ΔGH value.
Answer with a number only, understood to be in ng/mL.

So what's the measured ΔGH for this one? C[C@H](NC(=O)[C@@H](Cc1c[nH]c2ccccc12)NC(=O)[C@@H](N)Cc1c[nH]cn1)C(=O)N[C@@H](Cc1c[nH]c2ccccc12)C(=O)N[C@H](Cc1c[nH]cn1)C(N)=O [Example 4, H2 -His-D-Trp-Ala-Trp-D-His-NH2] (H-H[dW]AW[dH]-NH2)
-166

Another compound to check: C[C@H](NC(=O)[C@@H](Cc1c[nH]c2ccccc12)NC(=O)[C@@H](N)Cc1c[nH]cn1)C(=O)N[C@@H](Cc1c[nH]c2ccccc12)C(=O)N[C@H](Cc1ccccc1)C(N)=O [Example 1, H2 -His-D-Trp-Ala-Trp-D-Phe-NH2] (H-H[dW]AW[dF]-NH2)
206

Try this compound next: C[C@H](NC(=O)[C@@H](Cc1c[nH]c2ccccc12)NC(=O)[C@@H](N)Cc1c[nH]cn1)C(=O)N[C@@H](Cc1c[nH]c2ccccc12)C(=O)N[C@H](Cc1ccc(O)cc1)C(N)=O [Example 3, H2 -His-D-Trp-Ala-Trp-D-Tyr-NH2] (H-H[dW]AW[dY]-NH2)
-126

Pending compound:
# ΔGH lookup, item C[C@H](NC(=O)[C@@H](Cc1c[nH]c2ccccc12)NC(=O)[C@@H](N)Cc1ccc(O)cc1)C(=O)N[C@@H](Cc1c[nH]c2ccccc12)C(=O)N[C@H](Cc1c[nH]cn1)C(N)=O [Example 2, H2 -Tyr-D-Trp-Ala-Trp-D-His-NH2] (H-Y[dW]AW[dH]-NH2)
-179

// provenance: patent US4410513A
